Listed here: items and their measured IC50.
molecular target: hA2b/CHO (Homo sapiens (Human)); assay: cAMP inhibition assay in hA2b/CHO cells, 10 μM adenosine; assay type: cell-based; conditions: read-out: cAMP & FLIPR IC50 (nM) hA2b;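 also: cells exposed to compound 30 min at 37 °C, then stimulated with adenosine a further 30 min, cAMP read after 60 min at room temperature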
Sequence (P29275 whole entry): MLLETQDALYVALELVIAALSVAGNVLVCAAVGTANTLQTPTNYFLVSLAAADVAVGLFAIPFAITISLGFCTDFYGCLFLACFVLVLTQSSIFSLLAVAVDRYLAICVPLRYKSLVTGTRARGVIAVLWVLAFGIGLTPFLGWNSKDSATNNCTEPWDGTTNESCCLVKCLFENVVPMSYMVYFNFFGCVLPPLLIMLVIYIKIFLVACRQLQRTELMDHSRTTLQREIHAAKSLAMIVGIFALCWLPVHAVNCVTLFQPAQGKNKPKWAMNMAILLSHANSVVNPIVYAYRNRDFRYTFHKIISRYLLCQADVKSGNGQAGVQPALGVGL
Respond with the bare value in nM.

# COMPOUND, RESULT_NUMBER
data = [
    ("Cc1cnc2ccc(-c3nc(C(=O)NC[C@H]4CC(F)(F)CN4C)c(N)nc3-c3ncco3)cn12 [Example 162]", 147),
]

Prompt: Specify measured IC50 for Cc1cnc2ccc(-c3nc(C(=O)NC(C)C)c(N)nc3-c3ncco3)cn12 [Example 133] .
Completion: 554

Prompt: Specify measured IC50 for COC(C)CNC(=O)c1nc(-c2ccc3ncc(C)n3c2)c(-c2ncco2)nc1N (single isomer, unassigned; isomer 2) [Example 241] .
Completion: 205

Prompt: Specify measured IC50 for CC(NC(=O)c1nc(-c2ccc(=O)n(C)c2)c(-c2ncco2)nc1N)c1c(F)cccc1F (stereo not drawn) [Example 20] .
Completion: 3600

Prompt: Specify measured IC50 for Nc1nc(-c2ncco2)c(-c2ccc(=O)n(C(F)F)c2)nc1C(=O)NCc1ncccc1F [Example 31] .
Completion: 164

Prompt: Specify measured IC50 for Cc1cnc2ccc(-c3nc(C(=O)NCCC(=O)N(C)C)c(N)nc3-c3ncco3)cn12 [Example 143] .
Completion: 162

Prompt: Specify measured IC50 for Cn1cc(-c2nc(C(=O)NCc3ncccc3F)c(N)nc2-c2ncco2)ccc1=O [Example 14] .
Completion: 768

Prompt: Specify measured IC50 for CN1CCCC1CNC(=O)c1nc(-c2ccc3ncc(C(F)(F)F)n3c2)c(-c2ncco2)nc1N (single isomer, unassigned) [Cmpd. 206] .
Completion: 707

====

biological target: hA2a/CHO (Homo sapiens (Human), UniProt P29274); assay: cAMP inhibition assay in hA2a/CHO cells, 10 μM adenosine; type: cell-based; settings: read-out: cAMP & FLIPR IC50 (nM) hA2a;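 also: compounds added to cells 30 min ahead of adenosine, then a further 30 min at 37 °C with adenosine before cAMP detection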
Sequence (P29274 whole entry): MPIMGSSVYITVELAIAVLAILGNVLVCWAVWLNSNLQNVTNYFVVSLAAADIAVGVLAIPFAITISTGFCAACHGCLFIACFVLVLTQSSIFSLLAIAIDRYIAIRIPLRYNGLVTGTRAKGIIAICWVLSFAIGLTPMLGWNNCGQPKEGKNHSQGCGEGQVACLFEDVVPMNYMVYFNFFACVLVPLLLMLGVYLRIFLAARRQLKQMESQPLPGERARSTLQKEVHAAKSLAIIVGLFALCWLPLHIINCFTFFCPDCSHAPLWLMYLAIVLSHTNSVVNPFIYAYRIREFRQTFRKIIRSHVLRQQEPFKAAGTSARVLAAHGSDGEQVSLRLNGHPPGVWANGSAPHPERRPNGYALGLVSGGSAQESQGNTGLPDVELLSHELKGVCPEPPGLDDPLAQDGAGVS
EXPERIMENTAL_ENDPOINT: IC50 (nM)
Respond with the bare value in nM.

# MOLECULE, UNIT_NAME, IC50
rows = [
    ("Cc1cnc2ccc(-c3nc(C(=O)NC[C@H]4CCN(C(=O)C5CC5)C4)c(N)nc3-c3ncco3)cn12 [Cmpd. 219]", "nM", 4.9),
    ("Cc1cc(-c2nc(C(=O)NCc3c(F)cccc3F)c(N)nc2-c2cnn(C)c2)cc(C)n1 [Example 64]", "nM", 52),
    ("Cc1cnc2ccc(-c3nc(C(=O)NCc4cccc(N[C@H]5C[C@@H](N(C)C)C5)n4)c(N)nc3-c3ncco3)cn12 [Cmpd. 224]", "nM", 3.2),
]

Prompt: Specify measured IC50 for Cn1cc(-c2nc(CNC(=O)c3ncccc3OC(F)F)c(N)nc2-c2ccc(F)cc2)ccc1=O [Example 21] .
Completion: 98

Prompt: Specify measured IC50 for COc1ccc(F)cc1CNC(=O)c1nc(-c2cc(C)nc(C)c2)c(-c2ccc(F)cc2)nc1N [Example 92] .
Completion: 41

====

target: UniProt P30542; conditions: hA1 membrane, [3H]-DPCPX; read-out: Binding Affinity (IC50 nM) hA1
Sequence (P30542 whole entry): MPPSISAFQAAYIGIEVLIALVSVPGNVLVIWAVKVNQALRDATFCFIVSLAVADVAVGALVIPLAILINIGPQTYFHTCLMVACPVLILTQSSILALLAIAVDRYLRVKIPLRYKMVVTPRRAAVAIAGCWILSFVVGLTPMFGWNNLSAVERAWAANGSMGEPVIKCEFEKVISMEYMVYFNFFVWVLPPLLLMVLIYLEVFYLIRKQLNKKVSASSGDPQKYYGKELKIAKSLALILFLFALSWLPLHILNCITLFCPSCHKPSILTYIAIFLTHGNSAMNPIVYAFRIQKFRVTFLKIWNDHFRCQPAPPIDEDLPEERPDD
EXPERIMENTAL_ENDPOINT: IC50 (nM)
Respond with the bare value in nM.

# STRUCTURE_SMILES, UNIT_NAME, IC50
data = [
    ("Cc1cnc2ccc(-c3nc(C(=O)NC[C@@H]4CCOC4)c(N)nc3-c3ncco3)cn12", "nM", 195),
]

Prompt: Specify measured IC50 for COC[C@H](C)NC(=O)c1nc(-c2ccc3ncc(C)n3c2)c(-c2ncco2)nc1N .
Completion: 333

Prompt: Specify measured IC50 for Cn1cc(-c2nc(C(=O)NCc3nc(N)ccc3F)c(N)nc2-c2ncco2)ccc1=O .
Completion: 117

Prompt: Specify measured IC50 for Cc1cnc2ccc(-c3nc(C(=O)NC[C@H]4CCOC4)c(N)nc3-c3ncco3)cn12 .
Completion: 182
